Numbers sourced from PubChem BioAssay.

# measured target: Neurogenic locus notch homolog protein 2 (Homo sapiens) (UniProt Q04721)
# Sequence (Q04721 whole entry, looked up): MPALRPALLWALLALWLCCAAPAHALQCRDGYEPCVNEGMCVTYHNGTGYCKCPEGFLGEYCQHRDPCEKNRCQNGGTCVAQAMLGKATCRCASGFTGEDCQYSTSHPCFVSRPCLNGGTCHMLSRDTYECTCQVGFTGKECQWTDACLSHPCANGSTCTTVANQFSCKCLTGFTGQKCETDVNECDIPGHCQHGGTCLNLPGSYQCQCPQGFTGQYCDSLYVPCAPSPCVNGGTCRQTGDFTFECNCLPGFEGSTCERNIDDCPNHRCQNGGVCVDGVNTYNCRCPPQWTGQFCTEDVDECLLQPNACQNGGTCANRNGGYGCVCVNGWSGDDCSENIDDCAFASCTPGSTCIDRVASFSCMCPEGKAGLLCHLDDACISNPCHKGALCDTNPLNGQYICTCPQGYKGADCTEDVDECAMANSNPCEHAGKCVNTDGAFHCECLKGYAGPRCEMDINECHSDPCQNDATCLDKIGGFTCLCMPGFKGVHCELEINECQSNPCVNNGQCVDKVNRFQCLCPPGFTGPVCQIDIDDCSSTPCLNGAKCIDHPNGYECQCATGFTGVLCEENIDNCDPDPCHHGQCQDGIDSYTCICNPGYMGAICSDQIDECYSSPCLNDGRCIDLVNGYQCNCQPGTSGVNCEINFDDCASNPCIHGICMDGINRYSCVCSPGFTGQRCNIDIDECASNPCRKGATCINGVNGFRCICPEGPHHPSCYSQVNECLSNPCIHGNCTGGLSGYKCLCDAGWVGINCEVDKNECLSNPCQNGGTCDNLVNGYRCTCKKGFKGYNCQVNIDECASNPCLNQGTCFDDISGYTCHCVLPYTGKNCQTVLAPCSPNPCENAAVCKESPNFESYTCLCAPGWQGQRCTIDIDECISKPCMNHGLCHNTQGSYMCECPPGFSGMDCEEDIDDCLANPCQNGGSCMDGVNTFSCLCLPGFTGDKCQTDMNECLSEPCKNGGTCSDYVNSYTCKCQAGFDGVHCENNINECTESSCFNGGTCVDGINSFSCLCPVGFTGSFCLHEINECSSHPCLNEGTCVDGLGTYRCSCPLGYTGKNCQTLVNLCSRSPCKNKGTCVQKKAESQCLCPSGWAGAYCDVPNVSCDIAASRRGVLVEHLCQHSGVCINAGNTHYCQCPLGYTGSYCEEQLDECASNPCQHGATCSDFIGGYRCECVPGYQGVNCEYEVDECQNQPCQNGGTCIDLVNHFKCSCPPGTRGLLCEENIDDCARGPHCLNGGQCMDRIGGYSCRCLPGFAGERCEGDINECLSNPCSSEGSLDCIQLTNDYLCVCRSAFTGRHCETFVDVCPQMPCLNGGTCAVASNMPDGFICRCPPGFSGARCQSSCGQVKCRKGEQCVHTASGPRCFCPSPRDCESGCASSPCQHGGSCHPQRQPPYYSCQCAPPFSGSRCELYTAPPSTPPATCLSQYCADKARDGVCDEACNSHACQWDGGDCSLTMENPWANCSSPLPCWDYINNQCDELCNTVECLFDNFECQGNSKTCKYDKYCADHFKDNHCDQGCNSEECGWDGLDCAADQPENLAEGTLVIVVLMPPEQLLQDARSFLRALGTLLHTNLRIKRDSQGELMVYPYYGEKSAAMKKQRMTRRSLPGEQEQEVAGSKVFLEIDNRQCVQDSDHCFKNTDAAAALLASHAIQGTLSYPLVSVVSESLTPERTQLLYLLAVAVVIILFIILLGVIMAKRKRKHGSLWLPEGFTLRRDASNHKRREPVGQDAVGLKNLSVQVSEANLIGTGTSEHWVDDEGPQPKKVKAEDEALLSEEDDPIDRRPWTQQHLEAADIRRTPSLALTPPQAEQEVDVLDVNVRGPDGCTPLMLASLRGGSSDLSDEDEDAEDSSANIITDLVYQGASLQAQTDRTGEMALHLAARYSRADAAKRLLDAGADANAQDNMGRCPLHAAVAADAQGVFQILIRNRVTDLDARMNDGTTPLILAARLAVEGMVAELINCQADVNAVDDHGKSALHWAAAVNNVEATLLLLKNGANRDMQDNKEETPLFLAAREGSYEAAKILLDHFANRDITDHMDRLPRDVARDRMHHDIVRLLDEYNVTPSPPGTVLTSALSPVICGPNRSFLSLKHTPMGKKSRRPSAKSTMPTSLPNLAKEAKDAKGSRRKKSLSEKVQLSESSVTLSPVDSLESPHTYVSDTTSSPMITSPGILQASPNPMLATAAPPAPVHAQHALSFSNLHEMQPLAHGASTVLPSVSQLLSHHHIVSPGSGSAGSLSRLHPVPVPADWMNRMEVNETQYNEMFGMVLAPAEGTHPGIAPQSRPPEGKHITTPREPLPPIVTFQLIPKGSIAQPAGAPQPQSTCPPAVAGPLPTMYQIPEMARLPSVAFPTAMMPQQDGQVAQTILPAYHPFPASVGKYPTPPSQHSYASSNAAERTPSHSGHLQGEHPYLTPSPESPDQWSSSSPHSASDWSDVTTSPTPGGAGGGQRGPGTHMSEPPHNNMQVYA
# test method notes: Notch2 binders on small-molecule microarrays, primary screen, biochemical, small-molecule microarray, 635 nm fluorescence, stem cell growth factors (AID 1073)
# condition set: Notch2 binding, higher = more signal
Decision: composite z-score >= 1 yields rule met, all other cases yield rule not met.

Answered cases to consult:
Cc1ccc(S[C@]2(C(=O)NCc3ccccc3)CC(=O)N(Cc3cc(C(F)(F)F)cc(C(F)(F)F)c3)[C@@H]2c2ccc(CO)cc2I)cc1	rule not met
COCCOC(=O)N1C(=O)[C@@]2(c3cc(C#CCC(C(=O)OC)C(=O)OC)ccc31)[C@H](c1ccc(OCCO)cc1)N1[C@H](c3ccccc3)[C@H](c3ccccc3)OC(=O)[C@H]1[C@@H]2C(=O)Nc1nc2ccccc2s1	rule met
NCCCCCNC(=O)[C@H]1C[C@H]2C(=O)N[C@@H](Cc3ccccc3)C(=O)N2[C@H]1c1ccc(O)cc1	rule not met
O=C1[C@@]23C=C(Br)[C@H](C[C@@H]2COC3)[C@@]12CO2	rule not met
COCCOC(=O)N1C(=O)[C@@]2(c3cc(C#CC4=CCCCC4)ccc31)[C@H](c1ccc(O)cc1)N1[C@H](c3ccccc3)[C@H](c3ccccc3)OC(=O)[C@H]1[C@@H]2C(=O)NC[C@H](O)c1ccccc1	rule met

Attention now shifts to the item below.
Query block: Tell me whether composite z-score is at least 1 here: O=C(N1CCOCC1)[C@@]1(CCS(=O)(=O)c2ccccc2)N=C(c2ccc(OCCCO)cc2)O[C@H]1c1ccccc1
Result block: rule met

###

# test method notes: COS7 lysate on small-molecule microarray, probe aHis, 635 nm (AID 1123);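 note: z-score combines 667nm fluorescence intensity with signal-to-noise per printed compound spot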
# condition set: COS7 cell lysate, fluorescence, higher = more signal
Decision: composite z-score >= 0.7 yields true (1), all other cases yield false (0).

COc1cc2c(cc1O)C(c1ccc(CN3CCCC3)cc1)N(C)CC2 (stereo not drawn)	false (0)
C=CCC(OC(C)=O)[C@@H]1[C@@H](N(Cc2ccc(-c3ccccc3)cc2)C(=O)Cc2ccc(F)cc2)c2cc(OCCCO)ccc2N1C(=O)Cc1ccc2ccccc2c1 (stereo partly drawn)	true (1)
COCCOC(=O)N1C(=O)[C@@]2(c3cc(C#CCNC(N)=O)ccc31)[C@H](c1ccc(OCCO)cc1)N1[C@H](c3ccccc3)[C@H](c3ccccc3)OC(=O)[C@H]1[C@@H]2C(=O)NC[C@H](O)c1ccccc1	false (0)
[N-]=[N+]=NCc1ccccc1[C@H]1OC(c2ccc(OCCCO)cc2)=N[C@@]1(Cc1ccccc1)C(=O)NCCN1CCOCC1	true (1)
C=C(C(=O)CC[C@@H](OC(=O)c1ccccc1-c1ccccc1C(=O)O)c1ccccc1OCCO)C(C)C	false (0)
COc1cc(NN2C(C(O)C3CCCCC3)C=CC3C(=O)N(c4ccccc4)C(=O)C32)cc(OC)c1OC (stereo not drawn)	true (1)

Attention now shifts to the item below.
Query block: Tell me whether composite z-score is at least 0.7 here: Cc1ccc(S[C@]2(C(=O)NCc3ccccc3)CC(=O)N(Cc3cc(C(F)(F)F)cc(C(F)(F)F)c3)[C@@H]2c2ccc(CO)cc2I)cc1
Result block: false (0)

###

# Tested on: Human papillomavirus type 1a E7 protein (residues 1-88)
# test method notes: HPV1a E7 small-molecule binders, primary screen, biochemical, small-molecule microarray, residues 1-88, 635 nm (AID 1129)
# condition set: small-molecule microarray binding, fluorescence 635 nm; higher = more signal
Decision: composite z-score >= 0.4 yields TRUE, all other cases yield FALSE.

Query block: Tell me whether composite z-score is at least 0.4 here: C=CCNC(=O)[C@@H]1[C@H]2C(=O)O[C@H](c3ccccc3)[C@H](c3ccccc3)N2[C@H](c2ccc(O)cc2)[C@@]12C(=O)Nc1ccc(C#CCC(C(=O)OC)C(=O)OC)cc12
Result block: TRUE

Query block: Tell me whether composite z-score is at least 0.4 here: COc1ccc(C(=O)Nc2cccc(CN3C(=O)[C@]4(O[C@H](CCn5cc([C@H](O)c6ccccc6)nn5)[C@@H]([Si](C)(C)c5ccc(OC)cc5)[C@@H]4C)c4ccccc43)c2)cc1
Result block: TRUE

Query block: Tell me whether composite z-score is at least 0.4 here: CCCCC(=O)N(CCN1CCOCC1)[C@@H]1CC(C(=O)NCCO)=C[C@H](Oc2c(I)cc(CO)cc2OC)[C@H]1O
Result block: FALSE

Query block: Tell me whether composite z-score is at least 0.4 here: COCCOC(=O)N1C(=O)[C@@]2(c3cc(C#CCC(C(=O)OC)C(=O)OC)ccc31)[C@H](C(=O)NC[C@H](O)c1ccccc1)[C@H]1C(=O)O[C@H](c3ccccc3)[C@H](c3ccccc3)N1[C@@H]2c1ccc(O)cc1
Result block: TRUE

Query block: Tell me whether composite z-score is at least 0.4 here: CN1C(=O)C2C=CC(C(O)c3ccc(F)cc3)N(NC(=O)OC(C)(C)C)C2C1=O (centres undefined)
Result block: TRUE

Query block: Tell me whether composite z-score is at least 0.4 here: Cc1cccc([C@H]2C[C@H]3C(Br)=C[C@@H]2C(=O)[C@]32CO2)c1
Result block: FALSE

Query block: Tell me whether composite z-score is at least 0.4 here: Cc1ccc(S[C@]2(C(=O)NC(C)C)CC(=O)N(C(C)C)[C@@H]2c2ccc(CO)cc2I)cc1
Result block: FALSE

Query block: Tell me whether composite z-score is at least 0.4 here: CCOC(=O)C[C@H]1[C@H](OC(=O)c2ccccc2-c2ccccc2)[C@@H](NC(=O)c2ccc3ccccc3n2)c2cc(OCCCO)ccc2N1C(=O)c1ccccc1
Result block: FALSE

Query block: Tell me whether composite z-score is at least 0.4 here: CCOC(=O)C=Cc1cc(F)ccc1O
Result block: FALSE

Query block: Tell me whether composite z-score is at least 0.4 here: COc1ccc(C(=O)Nc2cccc(CN3C(=O)[C@@]4(O[C@@H](CC(=O)N(CCO)Cc5ccccc5)[C@H]([Si](C)(C)c5ccc(OC)cc5)[C@H]4C)c4ccccc43)c2)cc1
Result block: TRUE

Query block: Tell me whether composite z-score is at least 0.4 here: COCCOC(=O)N1C(=O)[C@@]2(c3ccccc31)[C@H](c1ccccc1OCCO)N1[C@H](c3ccccc3)[C@H](c3ccccc3)OC(=O)[C@H]1[C@@H]2C(=O)N1CCCCCCC1
Result block: TRUE

###

# Tested on: Fibrinogen (Alexa647-labelled)
# test method notes: fibrinogen binders on compound microarrays, profiling panel, artefact control for SMM control-protein annotation, biochemical, small-molecule microarray, 635/667 nm fluorescence (AID 1131);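 note: z-score merges 667 nm fluorescence with per-spot signal-to-noise over triplicate slides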
# condition set: fibrinogen-A647 binding fluorescence, higher = more signal
Hi there, I'd appreciate the recorded composite z-score for every entry that follows.
Numbers only.

Hi there! I need composite z-score for each item below, if you can.
1. CC(C)[C@H]1NC(=O)[C@@]23C(=O)N[C@@H](Cc4ccccc4)C2[C@H](C)[C@@]2(C)O[C@H]2C3/C=C/C/C=C\CNC(=O)[C@H](Cc2ccccc2)NC1=O (some centres undefined)
2. Cc1ccc(S[C@]2(C(=O)NC(C)C)CC(=O)N(Cc3ccccc3Cl)[C@@H]2c2ccc(CO)cc2)cc1
3. CC(C)OC(=O)CC(=O)CC(O)c1ccc([N+](=O)[O-])cc1 (centres undefined)
4. C=C[C@@H](OC)[C@H](OC(=O)Nc1ccc(OC)cc1)c1ccc(OC)c(O)c1

Result block:
0.982
0.54
-0.434
-1.1

###

# System: Plasmodium falciparum Sir2 (PF13_0152, Sir2A)
# test method notes: pfSir2 binders on small-molecule microarrays, primary screen, biochemical, small-molecule microarray, 635 nm fluorescence (AID 1098);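 note: score merges spot fluorescence intensity with its signal-to-noise ratio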
# condition set: small-molecule microarray binding, fluorescence 635 nm; higher = more signal
assay endpoint: composite z-score

Completed entries (count: 5):
CCCCCN1CC=CC23O[C@@H]4C=CCOC(=O)[C@@H]4[C@H]2C(=O)N(CCO)[C@@H]3C1=O (stereo not given in full)	-0.0015
COc1ccc(CCNC(=O)[C@@]2(Cc3ccccc3I)c3ccccc3C(=O)N(Cc3ccccc3Cl)[C@H]2c2ccc(CO)cc2)cc1	1.79
CCOC(=O)C[C@H]1[C@H](OC(=O)c2ccc(-c3ccccc3)cc2)[C@@H](NC(=O)Cc2ccc(OC)cc2)c2cc(OCCCO)ccc2N1C(=O)Cc1ccc(OC)cc1	0.064
COCCCNC(=O)[C@@]1(c2ccc([N+](=O)[O-])cc2)CC(=O)N(CC23CC4CC(CC(C4)C2)C3)[C@@H]1c1ccc(CO)cc1I	1.02
COc1ccc(C#Cc2ccc3c(c2)[C@]2(C(=O)N3)[C@H](C(=O)N3CCCCCCC3)[C@H]3C(=O)O[C@H](c4ccccc4)[C@H](c4ccccc4)N3[C@@H]2c2ccc(O)cc2)cc1	1.57

Hi there! I need composite z-score for each item below, if you can.
1. CCCCNC(=O)c1ccc(C#C[Si](C(C)C)(C(C)C)C(C)C)c(OC(C)=O)c1
2. COCCOC(=O)N1C(=O)[C@@]2(c3cc(C#CCC(C(=O)OC)C(=O)OC)ccc31)[C@H](c1ccc(OCCO)cc1)N1[C@H](c3ccccc3)[C@H](c3ccccc3)OC(=O)[C@H]1[C@@H]2C(=O)Nc1nc2ccccc2s1
3. COc1cccc(/C=C(\C#N)C(=O)Nc2c(C)n(C)n(-c3ccccc3)c2=O)c1
4. C=C(COC)C(=O)CC[C@H](OC(C)=O)c1ccc(OCCO)cc1
5. CCOC(=O)C1=C[C@@H](C(C)(C)C)N(S(=O)(=O)c2ccc(C)cc2)[C@H]1c1ccccc1
6. Cc1ccc(F)cc1S(=O)(=O)N[C@@H]1CCN(Cc2cccc3[nH]ccc23)C1
7. Cc1ccc(S[C@]2(C(=O)NCC(C)C)CC(=O)N(C3Cc4ccccc4C3)[C@@H]2c2ccc(CO)cc2I)cc1

Result block:
1: 0.28; 2: 1.02; 3: 0.129; 4: 0.761; 5: 0.104; 6: 0.245; 7: 1.35

Hi there! I need composite z-score for each item below, if you can.
1. COc1ccc([Si](C)(C)[C@@H]2[C@@H](CCn3cc([C@H](O)c4ccccc4)nn3)O[C@]3(C(=O)N(Cc4cccc(N5C(=O)c6cccc7cccc5c67)c4)c4ccccc43)[C@H]2C)cc1
2. C=CCC(OC(C)=O)[C@@H]1[C@@H](N(Cc2ccc(-c3cccc(C(F)(F)F)c3)o2)C(=O)Cc2ccc(OC)cc2)c2cc(OCCCO)ccc2N1C(=O)Cc1ccc2ccccc2c1 (stereo not given in full)
3. [N-]=[N+]=Nc1ccccc1C[C@]1(C(=O)O)N=C(c2ccc(OCCCO)cc2)O[C@H]1c1ccccc1

Result block:
1: -0.225; 2: 0.946; 3: 1.71
